# assayed-target: EGFR (Homo sapiens)
# Construct: host or cells: A431
# Sequence (P00533 25-1210): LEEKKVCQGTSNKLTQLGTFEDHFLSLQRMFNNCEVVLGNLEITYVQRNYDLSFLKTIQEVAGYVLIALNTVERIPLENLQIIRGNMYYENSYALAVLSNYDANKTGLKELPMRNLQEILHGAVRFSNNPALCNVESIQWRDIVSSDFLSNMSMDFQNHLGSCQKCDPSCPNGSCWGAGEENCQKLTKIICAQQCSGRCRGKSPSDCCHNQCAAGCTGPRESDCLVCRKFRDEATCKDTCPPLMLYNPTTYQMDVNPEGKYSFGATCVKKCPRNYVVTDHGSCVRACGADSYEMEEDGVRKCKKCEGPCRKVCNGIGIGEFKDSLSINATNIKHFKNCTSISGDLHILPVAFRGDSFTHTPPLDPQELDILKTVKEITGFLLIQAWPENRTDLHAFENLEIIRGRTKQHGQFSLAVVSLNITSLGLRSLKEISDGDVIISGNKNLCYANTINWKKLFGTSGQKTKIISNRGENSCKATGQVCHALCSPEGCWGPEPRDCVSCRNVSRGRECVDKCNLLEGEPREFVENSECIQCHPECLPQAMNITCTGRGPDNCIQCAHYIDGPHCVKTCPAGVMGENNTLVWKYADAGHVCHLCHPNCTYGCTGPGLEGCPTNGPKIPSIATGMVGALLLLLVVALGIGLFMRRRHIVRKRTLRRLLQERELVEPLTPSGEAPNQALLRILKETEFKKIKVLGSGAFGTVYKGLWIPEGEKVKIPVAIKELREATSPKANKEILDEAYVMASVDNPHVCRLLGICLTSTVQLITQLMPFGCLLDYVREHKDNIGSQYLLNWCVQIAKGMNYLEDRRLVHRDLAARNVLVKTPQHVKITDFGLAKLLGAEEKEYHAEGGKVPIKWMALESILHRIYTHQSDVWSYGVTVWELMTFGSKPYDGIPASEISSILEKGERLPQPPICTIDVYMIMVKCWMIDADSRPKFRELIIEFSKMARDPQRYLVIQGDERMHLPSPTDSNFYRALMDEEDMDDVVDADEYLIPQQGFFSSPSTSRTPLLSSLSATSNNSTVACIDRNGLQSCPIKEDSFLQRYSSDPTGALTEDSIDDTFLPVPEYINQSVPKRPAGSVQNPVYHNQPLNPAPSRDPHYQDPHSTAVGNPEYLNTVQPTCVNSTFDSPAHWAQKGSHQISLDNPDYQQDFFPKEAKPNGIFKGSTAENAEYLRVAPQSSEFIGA
# test-description: EGFR in-cell Western (ICW) screening protocol (EGFR inhibition assay)
# Assay type: cell-based
# Design: unit not given here
# assay-context: ICW assay, average of runs 1 and 2
Structures can show the parent of a compound that is named as a salt.
Some compounds, each annotated with its measured ICW Avg.
measurement-kind: ICW Avg

>  <compound>
CCCCc1c(C)nc(Nc2nc(C)c3cc(C)ccc3n2)[nH]c1=O

>  <assayed-target>
EGFR (Homo sapiens)

>  <measurement-kind>
ICW Avg

>  <measured-value>
49.32

$$$$
>  <compound>
C=CCc1c(C)nc(Nc2nc(C)c3ccccc3n2)[nH]c1=O [12610 + TFA]

>  <assayed-target>
EGFR (Homo sapiens)

>  <measurement-kind>
ICW Avg

>  <measured-value>
31.33

$$$$
>  <compound>
COCc1cc(=O)nc(Nc2nc(C)c3cc(C)cc(C)c3n2)[nH]1 [11625 + TFA]

>  <assayed-target>
EGFR (Homo sapiens)

>  <measurement-kind>
ICW Avg

>  <measured-value>
25.22

$$$$
>  <compound>
Cc1ccc2[nH]c(Nc3nc(C)cc(-c4ccccc4)n3)nc(=O)c2c1

>  <assayed-target>
EGFR (Homo sapiens)

>  <measurement-kind>
ICW Avg

>  <measured-value>
49.58

$$$$
>  <compound>
CCc1c(C)nc(Nc2nc(C)c3ccc(C)cc3n2)[nH]c1=O [12683 + TFA]

>  <assayed-target>
EGFR (Homo sapiens)

>  <measurement-kind>
ICW Avg

>  <measured-value>
40.88

$$$$
>  <compound>
Cc1cc(C)nc(Nc2nc(-c3ccccc3)c3ccc(Cl)cc3n2)n1 [compound 12636]

>  <assayed-target>
EGFR (Homo sapiens)

>  <measurement-kind>
ICW Avg

>  <measured-value>
49.02

$$$$
>  <compound>
CCCc1c[nH]c(Nc2nc(C)c3ccccc3n2)nc1=O [compound 12662]

>  <assayed-target>
EGFR (Homo sapiens)

>  <measurement-kind>
ICW Avg

>  <measured-value>
25.21

$$$$
>  <compound>
Cc1nc(Nc2nc(C(C)C)cc(=O)[nH]2)nc2c(C)cccc12

>  <assayed-target>
EGFR (Homo sapiens)

>  <measurement-kind>
ICW Avg

>  <measured-value>
30.77

$$$$
>  <compound>
CC1(C)CC(=O)c2cnc(Nc3nc(-c4ccccc4)c4cc(Cl)ccc4n3)nc2C1 [11807 + TFA]

>  <assayed-target>
EGFR (Homo sapiens)

>  <measurement-kind>
ICW Avg

>  <measured-value>
25.37

$$$$
>  <compound>
C=CCc1c(C)nc(Nc2nc(C)c3cccc(OCC)c3n2)[nH]c1=O

>  <assayed-target>
EGFR (Homo sapiens)

>  <measurement-kind>
ICW Avg

>  <measured-value>
42.27

$$$$
>  <compound>
Cc1ccc2nc(Nc3nc(C)c(CCC(C)C)c(=O)[nH]3)nc(C)c2c1 [12666 + TFA]

>  <assayed-target>
EGFR (Homo sapiens)

>  <measurement-kind>
ICW Avg

>  <measured-value>
36.77

$$$$
>  <compound>
Cc1cc(-c2ccccc2)nc(Nc2nc(C)c3cc(C)c(C)cc3n2)n1

>  <assayed-target>
EGFR (Homo sapiens)

>  <measurement-kind>
ICW Avg

>  <measured-value>
37.00

$$$$
>  <compound>
Cc1cc2nc(Nc3ncc4c(n3)CC(c3cccs3)CC4=O)nc(C)c2cc1C (stereo not drawn) [11681 + TFA]

>  <assayed-target>
EGFR (Homo sapiens)

>  <measurement-kind>
ICW Avg

>  <measured-value>
29.86

$$$$
>  <compound>
Cc1ccc(SCc2cc(=O)[nH]c(Nc3nc(C)c4cc(C)cc(C)c4n3)n2)cc1 [11727 + TFA]

>  <assayed-target>
EGFR (Homo sapiens)

>  <measurement-kind>
ICW Avg

>  <measured-value>
31.05

$$$$
>  <compound>
CCCc1c(-c2ccccc2)nc(Nc2nc(C)c3ccccc3n2)[nH]c1=O [compound 12609]

>  <assayed-target>
EGFR (Homo sapiens)

>  <measurement-kind>
ICW Avg

>  <measured-value>
41.04

$$$$
>  <compound>
Cc1ccc2nc(Nc3nc(=O)cc(CSc4ccc(Cl)cc4)[nH]3)nc(C)c2c1 [11826 + TFA]

>  <assayed-target>
EGFR (Homo sapiens)

>  <measurement-kind>
ICW Avg

>  <measured-value>
37.16

$$$$
>  <compound>
CCc1ccc2nc(Nc3nc(=O)cc(CSc4nc5ccccc5s4)[nH]3)nc(C)c2c1 [11300 + TFA]

>  <assayed-target>
EGFR (Homo sapiens)

>  <measurement-kind>
ICW Avg

>  <measured-value>
25.61

$$$$
>  <compound>
Cc1nc(Nc2nc(CSc3ccccn3)cc(=O)[nH]2)nc2ccccc12 [12740 + TFA]

>  <assayed-target>
EGFR (Homo sapiens)

>  <measurement-kind>
ICW Avg

>  <measured-value>
28.34

$$$$
